Tested on: human APOE RNA
Experiment: Dose-dependent inhibition of human APOE RNA in differentiated SH-SY5Y cells, free uptake, 5 days (Example 5)
Type: cell-based
Settings: 5 days (Table 13)
Experimental: Modified oligonucleotides selected from the examples above were tested at various doses in differentiated SH-SY5Y cells. The modified oligonucleotides were tested in a series of experiments that had the same culture conditions. Differentiated SH-SY5Y cells plated at a density of 10,000 cells per well were treated by free uptake with various concentrations of modified oligonucleotide as specified in the tables below. […]
Strand notation (5' to 3'): a small letter for the sugar, then the base; units joined by * are phosphorothioate-linked, units joined directly phosphodiester-linked; [ ] holds rarer units or linkages, { } end groups; capitals alone tell only the bases. [ms] = mesyl phosphoramidate linkage; e = 2'-O-(2-methoxyethyl) (MOE); k = constrained ethyl (cEt); [5mC] = 5-methylcytosine; d = 2'-deoxy (DNA)
QUANTITY_KIND: IC50 (nM)
The response must be a number in nM with no trailing unit.

SUBSTANCE	IC50 [nM]
Aes^mCeoTeoTesGesGksTdsGdzAdzAdzTds^mCdsTdsTdsTdsAdzTksTksAesAe (eA*e[5mC]eTeT*eG*kG*dT*dG[ms]dA[ms]dA[ms]dT*d[5mC]*dT*dT*dT*dA[ms]kT*kT*eA*eA) [Compound No. 1757576]	70
^mCksTksTksGdzGdzTdzGdzAdzAdzTds^mCdsTdsTdsTdsAdsTdsTksAksAdzAk (antisense k[5mC]*kT*kT*dG[ms]dG[ms]dT[ms]dG[ms]dA[ms]dA[ms]dT*d[5mC]*dT*dT*dT*dA*dT*kT*kA*dA[ms]kA) [Compound No. 1785602]	90
Aks^mCeoTeoTesGesGksTdsGdzAdzAdzTds^mCdsTdsTdsTdsAdzTksTksAesAe (kA*e[5mC]eTeT*eG*kG*dT*dG[ms]dA[ms]dA[ms]dT*d[5mC]*dT*dT*dT*dA[ms]kT*kT*eA*eA) [Compound No. 1809635]	50

Now turn to the next substance.
# input substance: TezTeoGeoGksTdsGdzAdzAdzTds^mCdsTdsTdsTdsAdzTksTksAesAesAes^mCe (antisense eT[ms]eTeGkG*dT*dG[ms]dA[ms]dA[ms]dT*d[5mC]*dT*dT*dT*dA[ms]kT*kT*eA*eA*eA*e[5mC]) [Compound No. 1809814] ; wanted: its IC50
550

###

tested on: human APOE RNA; assay: Dose-dependent inhibition of human APOE RNA in differentiated SH-SY5Y cells, free uptake, 5 days (Example 5); type: cell-based; details: 1,280 nM, 5 days (Table 14)
Strand notation (5' to 3'): a small letter for the sugar, then the base; units joined by * are phosphorothioate-linked, units joined directly phosphodiester-linked; [ ] holds rarer units or linkages, { } end groups; capitals alone tell only the bases. [ms] = mesyl phosphoramidate linkage; e = 2'-O-(2-methoxyethyl) (MOE); k = constrained ethyl (cEt); [5mC] = 5-methylcytosine; d = 2'-deoxy (DNA)
QUANTITY_KIND: APOE RNA (% UTC)
Report only the number, with the unit % UTC understood.

SUBSTANCE	QUANTITY_UNIT	APOE RNA (% UTC)
1778128: modified oligonucleotide complementary to human APOE RNA (eA*e[5mC]eTeTkGkG*dT*dG[ms]dA[ms]dA*dT*d[5mC]*dT*dT*dT*dA[ms]kTeT*eA*eA; antisense) [compound 1778128]	% UTC	30

Sample ^mCksTksTksGdzGdzTdzGdzAdzAdzTds^mCdsTdsTdsTdsAdsTdsTksAksAdzAk (antisense k[5mC]*kT*kT*dG[ms]dG[ms]dT[ms]dG[ms]dA[ms]dA[ms]dT*d[5mC]*dT*dT*dT*dA*dT*kT*kA*dA[ms]kA) [Compound No. 1785602] — what was its APOE RNA (% UTC)?
26

###

Reported ED 50 (μg) Cortex values follow for various substances
test system: human APOE RNA; assay: Potency (dose response, ED50) in APOE C57BL/6NTac-Apoeem7250 knock-in mice, 8 weeks (Example 15); assay type: in vivo; conditions: cortex, single ICV bolus, GraphPad Prism 10
Strand notation (5' to 3'): a small letter for the sugar, then the base; units joined by * are phosphorothioate-linked, units joined directly phosphodiester-linked; [ ] holds rarer units or linkages, { } end groups; capitals alone tell only the bases. [ms] = mesyl phosphoramidate linkage; e = 2'-O-(2-methoxyethyl) (MOE); k = constrained ethyl (cEt); [5mC] = 5-methylcytosine; d = 2'-deoxy (DNA)
Answers without a unit are incomplete; give the number and then its unit.

SUBSTANCE	ED 50 (μg) Cortex
1785599: modified oligonucleotide complementary to human APOE RNA (k[5mC]*kT*kT*dG[ms]dG[ms]dT[ms]dG[ms]dA[ms]dA[ms]dT[ms]d[5mC]*dT*dT*dT*dA*dT*kT*kA*dA[ms]kA; antisense) [compound 1785599]	143.3 µg

What does the record list as ED 50 (μg) Cortex for ^mCksTksTksGdzGdzTdzGdzAdzAdzTds^mCdsTdsTdsTdsAdsTdsTksAksAdzAk (antisense k[5mC]*kT*kT*dG[ms]dG[ms]dT[ms]dG[ms]dA[ms]dA[ms]dT*d[5mC]*dT*dT*dT*dA*dT*kT*kA*dA[ms]kA) [Compound No. 1785602] ?
153.2 µg

# query: ED 50 (μg) Cortex of entry TezTeoGeoGksTdsGdzAdzAdzTds^mCdsTdsTdsTdsAdzTksTksAesAesAes^mCe (antisense eT[ms]eTeGkG*dT*dG[ms]dA[ms]dA[ms]dT*d[5mC]*dT*dT*dT*dA[ms]kT*kT*eA*eA*eA*e[5mC]) [Compound No. 1809814]
309.5 µg

What value of ED 50 (μg) Cortex has been reported for the following substance? Aks^mCeoTeoTesGesGksTdsGdzAdzAdzTds^mCdsTdsTdsTdsAdzTksTksAesAe (kA*e[5mC]eTeT*eG*kG*dT*dG[ms]dA[ms]dA[ms]dT*d[5mC]*dT*dT*dT*dA[ms]kT*kT*eA*eA) [Compound No. 1809635]
146.7 µg

Entry Aes^mCeoTeoTesGesGksTdsGdzAdzAdzTds^mCdsTdsTdsTdsAdzTksTksAesAe (eA*e[5mC]eTeT*eG*kG*dT*dG[ms]dA[ms]dA[ms]dT*d[5mC]*dT*dT*dT*dA[ms]kT*kT*eA*eA) [Compound No. 1757576] has what ED 50 (μg) Cortex?
135.7 µg

###

system: human APOE RNA; test: Dose-dependent inhibition of human APOE RNA in differentiated SH-SY5Y cells, free uptake, 5 days (Example 5); format: cell-based; settings: 8,000 nM, 5 days (Table 13)
Strand notation (5' to 3'): a small letter for the sugar, then the base; units joined by * are phosphorothioate-linked, units joined directly phosphodiester-linked; [ ] holds rarer units or linkages, { } end groups; capitals alone tell only the bases. [ms] = mesyl phosphoramidate linkage; e = 2'-O-(2-methoxyethyl) (MOE); k = constrained ethyl (cEt); [5mC] = 5-methylcytosine; d = 2'-deoxy (DNA)
This section presents substances with their documented APOE RNA (% UTC) values.
Write down the numeric answer in % UTC and omit the unit.

The examples below pair each entry with its known result.
SUBSTANCE	ASSAYED_SYSTEM	VAL
Aks^mCeoTeoTesGesGksTdsGdzAdzAdzTds^mCdsTdsTdsTdsAdzTksTksAesAe (kA*e[5mC]eTeT*eG*kG*dT*dG[ms]dA[ms]dA[ms]dT*d[5mC]*dT*dT*dT*dA[ms]kT*kT*eA*eA) [Compound No. 1809635]	human APOE RNA	20
TezTeoGeoGksTdsGdzAdzAdzTds^mCdsTdsTdsTdsAdzTksTksAesAesAes^mCe (antisense eT[ms]eTeGkG*dT*dG[ms]dA[ms]dA[ms]dT*d[5mC]*dT*dT*dT*dA[ms]kT*kT*eA*eA*eA*e[5mC]) [Compound No. 1809814]	human APOE RNA	41
^mCksTksTksGdzGdzTdzGdzAdzAdzTds^mCdsTdsTdsTdsAdsTdsTksAksAdzAk (antisense k[5mC]*kT*kT*dG[ms]dG[ms]dT[ms]dG[ms]dA[ms]dA[ms]dT*d[5mC]*dT*dT*dT*dA*dT*kT*kA*dA[ms]kA) [Compound No. 1785602]	human APOE RNA	15

With those in mind, consider the next substance.
Endpoint output: APOE RNA (% UTC) of Aes^mCeoTeoTesGesGksTdsGdzAdzAdzTds^mCdsTdsTdsTdsAdzTksTksAesAe (eA*e[5mC]eTeT*eG*kG*dT*dG[ms]dA[ms]dA[ms]dT*d[5mC]*dT*dT*dT*dA[ms]kT*kT*eA*eA) [Compound No. 1757576] . Value?
12
